Ref: patent US20230124862A1

System: Enterococcus spp.
Assay: Broth microdilution MIC (Example 11)
Type: cell-based, E. faecalis, E. faecium
Conditions: E. faecalis MMX 8961; VRE, Lev^R Cip^R Ery^R; read-out: MIC
Examples of molecules with documented MIC follow.

>  <molecule>
CC[C@H]1OC(=O)[C@H](C)[C@@H](O[C@H]2C[C@@](C)(OC)[C@@H](O)[C@H](C)O2)[C@H](C)[C@@H](O[C@@H]2O[C@H](C)C[C@H](N(C)C)[C@H]2O)[C@](C)(O)C[C@@H](C)C(=O)[C@H](C)[C@@H](O)[C@]1(C)O [Erythromycin]

>  <MIC>
> 64 µg/mL

$$$$
>  <molecule>
CCC[C@@H]1C[C@@H](C(=O)N[C@@H]([C@H]2O[C@H](SC)[C@H](O)[C@@H](O)[C@H]2O)[C@H](C)Cl)N(C)C1 [clindamycin, reference compound]

>  <MIC>
> 32 µg/mL

$$$$
>  <molecule>
CC(C)(O/N=C(\C(=O)N[C@@H]1C(=O)N2C(C(=O)[O-])=C(C[n+]3ccccc3)CS[C@H]12)c1csc(N)n1)C(=O)O [Ceftazidime]

>  <MIC>
> 32 µg/mL

$$$$
>  <molecule>
C[C@H]1COc2c(N3CCN(C)CC3)c(F)cc3c(=O)c(C(=O)O)cn1c23 [Levofloxacin, reference compound]

>  <MIC>
64 µg/mL

$$$$

###

Quick reference for D(10) among some compounds
Experiment: Particle size distribution of BisEDT samples vs processing conditions
Format: physicochemical
Conditions: particle size distribution of BisEDT samples
measured.attribute: D(10) (μm)

>  <compound>
C1C[S][Bi]([S]CC[S][Bi]2[S]CC[S]2)[S]1 [Sample 10]

>  <recorded.measurement>
0.36

$$$$
>  <compound>
C1C[S][Bi]([S]CC[S][Bi]2[S]CC[S]2)[S]1 [Sample 8]

>  <recorded.measurement>
0.36

$$$$
>  <compound>
C1C[S][Bi]([S]CC[S][Bi]2[S]CC[S]2)[S]1 [Sample 2]

>  <recorded.measurement>
0.58

$$$$
>  <compound>
C1C[S][Bi]([S]CC[S][Bi]2[S]CC[S]2)[S]1 [Sample 4]

>  <recorded.measurement>
0.44

$$$$
>  <compound>
C1C[S][Bi]([S]CC[S][Bi]2[S]CC[S]2)[S]1 [Sample 11]

>  <recorded.measurement>
0.38

$$$$

###

Assay: Particle size distribution of BisEDT samples vs processing conditions
Assay type: physicochemical
Settings: crystalline BisEDT samples
Measured D[4, 3] of individual entries
measured.attribute: D[4, 3] (μm)

>  <compound>
C1C[S][Bi]([S]CC[S][Bi]2[S]CC[S]2)[S]1 [Sample 1]

>  <measured.attribute>
D[4, 3]

>  <unit.abbrev>
μm

>  <recorded.measurement>
2.9

$$$$
>  <compound>
C1C[S][Bi]([S]CC[S][Bi]2[S]CC[S]2)[S]1 [Sample 11]

>  <measured.attribute>
D[4, 3]

>  <unit.abbrev>
μm

>  <recorded.measurement>
1.4

$$$$
>  <compound>
C1C[S][Bi]([S]CC[S][Bi]2[S]CC[S]2)[S]1 [Sample 4]

>  <measured.attribute>
D[4, 3]

>  <unit.abbrev>
μm

>  <recorded.measurement>
1.7

$$$$
>  <compound>
C1C[S][Bi]([S]CC[S][Bi]2[S]CC[S]2)[S]1 [Sample 13]

>  <measured.attribute>
D[4, 3]

>  <unit.abbrev>
μm

>  <recorded.measurement>
1.2

$$$$
>  <compound>
C1C[S][Bi]([S]CC[S][Bi]2[S]CC[S]2)[S]1 [Sample 14]

>  <measured.attribute>
D[4, 3]

>  <unit.abbrev>
μm

>  <recorded.measurement>
1.2

$$$$
>  <compound>
C1C[S][Bi]([S]CC[S][Bi]2[S]CC[S]2)[S]1 [Sample 10]

>  <measured.attribute>
D[4, 3]

>  <unit.abbrev>
μm

>  <recorded.measurement>
0.97

$$$$
>  <compound>
C1C[S][Bi]([S]CC[S][Bi]2[S]CC[S]2)[S]1 [Sample 12]

>  <measured.attribute>
D[4, 3]

>  <unit.abbrev>
μm

>  <recorded.measurement>
1.3

$$$$
>  <compound>
C1C[S][Bi]([S]CC[S][Bi]2[S]CC[S]2)[S]1 [Sample 9]

>  <measured.attribute>
D[4, 3]

>  <unit.abbrev>
μm

>  <recorded.measurement>
1.1

$$$$
>  <compound>
C1C[S][Bi]([S]CC[S][Bi]2[S]CC[S]2)[S]1 [Sample 7]

>  <measured.attribute>
D[4, 3]

>  <unit.abbrev>
μm

>  <recorded.measurement>
1.4

$$$$
>  <compound>
C1C[S][Bi]([S]CC[S][Bi]2[S]CC[S]2)[S]1 [Sample 15]

>  <measured.attribute>
D[4, 3]

>  <unit.abbrev>
μm

>  <recorded.measurement>
0.86

$$$$
